Assay: Short-term stability in spiked pooled human plasma (bench-top, 4 °C, 56 °C)
Conditions: validation standard LLOV
molecules and their reported Short-time stability (24h, RT, with daylight) Accuracy [%]
assay_metric: Short-time stability (24h, RT, with daylight) Accuracy [%] (%)

{"molecule": "CCC1=C[C@@H]2CN(C1)Cc1c([nH]c3ccccc13)[C@@](C(=O)OC)(c1cc3c(cc1OC)N(C)[C@H]1[C@@](O)(C(=O)OC)[C@H](OC(C)=O)[C@]4(CC)C=CCN5CC[C@]31[C@@H]54)C2 [Vinorelbine]", "result_number": 98.2}
{"molecule": "CNC(=O)c1ccccc1Sc1ccc2c(/C=C/c3ccccn3)n[nH]c2c1 [Axitinib]", "result_number": 108.7}
{"molecule": "COC(=O)N[C@@H](C)CNc1nccc(-c2cn(C(C)C)nc2-c2cc(Cl)cc(NS(C)(=O)=O)c2F)n1 [Encorafenib]", "result_number": 108.1}
{"molecule": "COc1cc2ncnc(Nc3ccc(F)c(Cl)c3)c2cc1NC(=O)/C=C/CN1CCCCC1 [Dacomitinib]", "result_number": 74.6}
{"molecule": "COc1cc(N2CCC(N3CCN(C)CC3)CC2)ccc1Nc1ncc(Cl)c(Nc2ccccc2P(C)(C)=O)n1 [Brigatinib]", "result_number": 55.6}
{"molecule": "CC1(C)CCC(CN2CCN(c3ccc(C(=O)NS(=O)(=O)c4ccc(NCC5CCOCC5)c([N+](=O)[O-])c4)c(Oc4cnc5[nH]ccc5c4)c3)CC2)=C(c2ccc(Cl)cc2)C1 [Venetoclax]", "result_number": 112.5}

---

Assay: Long-term stability in spiked pooled human plasma
Settings: validation standard ULOV
# note: boundary value 90% maps to N; Long-term stability, 3 month, -20°C Accuracy [%] below it maps to Y

{"molecule": "C#Cc1cccc(Nc2ncnc3cc(OCCOC)c(OCCOC)cc23)c1 [Erlotinib]", "category": "N"}
{"molecule": "CC(=O)Nc1cccc(-n2c(=O)n(C3CC3)c(=O)c3c(Nc4ccc(I)cc4F)n(C)c(=O)c(C)c32)c1 [Trametinib]", "category": "N"}
{"molecule": "O=C(c1ccc(F)c(F)c1Nc1ccc(I)cc1F)N1CC(O)([C@@H]2CCCCN2)C1 [Cobimetinib]", "category": "N"}
{"molecule": "CS(=O)(=O)CCNCc1ccc(-c2ccc3ncnc(Nc4ccc(OCc5cccc(F)c5)c(Cl)c4)c3c2)o1 [Lapatinib]", "category": "N"}
{"molecule": "COc1cc2nccc(Oc3ccc(NC(=O)C4(C(=O)Nc5ccc(F)cc5)CC4)cc3)c2cc1OC [Cabozantinib]", "category": "N"}
{"molecule": "Cn1cnc2c(F)c(Nc3ccc(Br)cc3F)c(C(=O)NOCCO)cc21 [Binimetinib]", "category": "N"}
{"molecule": "CCN1CCN(Cc2ccc(Nc3ncc(F)c(-c4cc(F)c5nc(C)n(C(C)C)c5c4)n3)nc2)CC1 [Abemaciclib]", "category": "N"}
{"molecule": "CS(=O)(=O)c1ccc(C(=O)Nc2ccc(Cl)c(-c3ccccn3)c2)c(Cl)c1 [Vismodegib]", "category": "N"}
{"molecule": "CNC(=O)c1ccccc1Sc1ccc2c(/C=C/c3ccccn3)n[nH]c2c1 [Axitinib]", "category": "Y"}
{"molecule": "O=C1CCC(N2C(=O)c3ccccc3C2=O)C(=O)N1 (stereo not shown) [Thalidomide]", "category": "Y"}
{"molecule": "CO[C@@H]1[C@H](N(C)C(=O)c2ccccc2)C[C@H]2O[C@]1(C)n1c3ccccc3c3c4c(c5c6ccccc6n2c5c31)C(=O)NC4 [Midostaurin]", "category": "N"}

---

Experiment: Long-term stability in spiked pooled human plasma
Conditions: validation standard ULOV
assay_metric: Long-term stability, 1 month, -20°C Accuracy [%]

{"molecule": "CCOc1cc2ncc(C#N)c(Nc3ccc(OCc4ccccn4)c(Cl)c3)c2cc1NC(=O)/C=C/CN(C)C", "result": "79.7%"}
{"molecule": "O=C(c1cc(Cc2n[nH]c(=O)c3ccccc23)ccc1F)N1CCN(C(=O)C2CC2)CC1", "result": "99.1%"}
{"molecule": "Cc1cn(-c2cc(NC(=O)c3ccc(C)c(Nc4nccc(-c5cccnc5)n4)c3)cc(C(F)(F)F)c2)cn1", "result": "94.2%"}
{"molecule": "O=c1[nH]c(=O)n([C@H]2C[C@H](O)[C@@H](CO)O2)cc1C(F)(F)F", "result": "93.7%"}
{"molecule": "O=C1CN2Cc3c(ccc(Cl)c3Cl)N=C2N1 [Anagrelide]", "result": "95.4%"}
{"molecule": "CCN1CCN(Cc2ccc(Nc3ncc(F)c(-c4cc(F)c5nc(C)n(C(C)C)c5c4)n3)nc2)CC1", "result": "102.4%"}
{"molecule": "COc1cc2c(Nc3ccc(Br)cc3F)ncnc2cc1OCC1CCN(C)CC1", "result": "93.1%"}
{"molecule": "N#CC[C@H](C1CCCC1)n1cc(-c2ncnc3[nH]ccc23)cn1", "result": "95.3%"}
{"molecule": "Cc1ccc(C(=O)Nc2ccc(CN3CCN(C)CC3)c(C(F)(F)F)c2)cc1C#Cc1cnc2cccnn12", "result": "95.0%"}
{"molecule": "CS(=O)(=O)c1ccc(C(=O)Nc2ccc(Cl)c(-c3ccccn3)c2)c(Cl)c1", "result": "90.5%"}
{"molecule": "CC(=O)Nc1cccc(-n2c(=O)n(C3CC3)c(=O)c3c(Nc4ccc(I)cc4F)n(C)c(=O)c(C)c32)c1", "result": "103.2%"}
{"molecule": "CC1(C)CCC(CN2CCN(c3ccc(C(=O)NS(=O)(=O)c4ccc(NCC5CCOCC5)c([N+](=O)[O-])c4)c(Oc4cnc5[nH]ccc5c4)c3)CC2)=C(c2ccc(Cl)cc2)C1", "result": "108.0%"}
{"molecule": "CN(C)C(=O)c1cc2cnc(Nc3ccc(N4CCNCC4)cn3)nc2n1C1CCCC1", "result": "91.9%"}
{"molecule": "COc1cc2ncnc(Nc3ccc(F)c(Cl)c3)c2cc1NC(=O)/C=C/CN1CCCCC1", "result": "93.0%"}
{"molecule": "O=C(Nc1cnn2ccc(N3CCC[C@@H]3c3cc(F)ccc3F)nc12)N1CC[C@H](O)C1", "result": "95.0%"}
{"molecule": "C[C@]12CC[C@H](O)CC1=CC[C@@H]1[C@@H]2CC[C@]2(C)C(c3cccnc3)=CC[C@@H]12", "result": "98.3%"}

---

Assay: Long-term stability in spiked pooled human plasma
Settings: validation standard MOV
assay_metric: Long-term stability, 2 month, -80°C Accuracy [%]

{"compound": "CC(=O)Nc1cccc(-n2c(=O)n(C3CC3)c(=O)c3c(Nc4ccc(I)cc4F)n(C)c(=O)c(C)c32)c1", "result": "117.6%"}
{"compound": "C#Cc1cccc(Nc2ncnc3cc(OCCOC)c(OCCOC)cc23)c1", "result": "101.3%"}
{"compound": "C[C@H]1Oc2cc(cnc2N)-c2c(nn(C)c2C#N)CN(C)C(=O)c2ccc(F)cc21", "result": "91.2%"}
{"compound": "COc1cc2nccc(Oc3ccc(NC(=O)C4(C(=O)Nc5ccc(F)cc5)CC4)cc3)c2cc1OC [Cabozantinib]", "result": "102.9%"}
{"compound": "COc1cc2ncnc(Nc3ccc(F)c(Cl)c3)c2cc1OCCCN1CCOCC1", "result": "104.1%"}
{"compound": "Cc1ccc(C(=O)Nc2ccc(CN3CCN(C)CC3)c(C(F)(F)F)c2)cc1C#Cc1cnc2cccnn12", "result": "101.1%"}
{"compound": "N#CC[C@H](C1CCCC1)n1cc(-c2ncnc3[nH]ccc23)cn1", "result": "96.8%"}
{"compound": "CO[C@@H]1[C@H](N(C)C(=O)c2ccccc2)C[C@H]2O[C@]1(C)n1c3ccccc3c3c4c(c5c6ccccc6n2c5c31)C(=O)NC4", "result": "116.3%"}
{"compound": "O=C(c1ccc(F)c(F)c1Nc1ccc(I)cc1F)N1CC(O)([C@@H]2CCCCN2)C1", "result": "103.3%"}
{"compound": "CNC(=O)c1ccccc1Sc1ccc2c(/C=C/c3ccccn3)n[nH]c2c1", "result": "92.2%"}
{"compound": "Cc1cn(-c2cc(NC(=O)c3ccc(C)c(Nc4nccc(-c5cccnc5)n4)c3)cc(C(F)(F)F)c2)cn1", "result": "98.0%"}
{"compound": "Cc1[nH]c2ccccc2c1CCNCc1ccc(/C=C/C(=O)NO)cc1", "result": "87.5%"}
{"compound": "O=c1[nH]c(=O)n([C@H]2C[C@H](O)[C@@H](CO)O2)cc1C(F)(F)F", "result": "104.7%"}
{"compound": "COC(=O)N[C@@H](C)CNc1nccc(-c2cn(C(C)C)nc2-c2cc(Cl)cc(NS(C)(=O)=O)c2F)n1", "result": "104.9%"}
{"compound": "Cc1ccc(NC(=O)c2ccc(CN3CCN(C)CC3)cc2)cc1Nc1nccc(-c2cccnc2)n1", "result": "96.4%"}
{"compound": "COc1cc2nccc(Oc3ccc(NC(=O)Nc4cc(C)on4)c(Cl)c3)c2cc1OC", "result": "101.3%"}
